System: HIV-1 protease
Experiment: Selectivity index, ratio IC50 for cytotoxicity against human HEK-293T cells over IC50 for inhibition of HIV-1 protease
Assay type: toxicity, cell-based
Conditions: read-out: Ratio CC50/IC50

smi	assayed_system	qualifier_symbol	selectivity ratio
CC(C)CN(C[C@@H](O)[C@H](Cc1ccccc1)NC(=O)[C@@H]1COCCN1C)S(=O)(=O)c1ccc(NO)cc1	HIV-1 protease	=	3550
COc1ccc(S(=O)(=O)N(CC(C)C)C[C@@H](O)[C@H](Cc2ccccc2)NC(=O)[C@@H]2COCCN2)cc1	HIV-1 protease	>	513000
CNc1ccc(S(=O)(=O)N(CC(C)C)C[C@@H](O)[C@H](Cc2ccccc2)NC(=O)[C@H]2CNCCO2)cc1	HIV-1 protease	>	2220
CC(C)CN(C[C@@H](O)[C@H](Cc1ccccc1)NC(=O)[C@@H]1COCCN1)S(=O)(=O)c1ccc(O)cc1	HIV-1 protease	>	2.22e+06
CC(C)CN(C[C@@H](O)[C@H](Cc1ccccc1)NC(=O)OC[C@H]1CNCCO1)S(=O)(=O)c1ccc(O)cc1	HIV-1 protease	>	105000
COc1ccc(S(=O)(=O)N(CC(C)C)C[C@@H](O)[C@H](Cc2ccccc2)NC(=O)OC[C@H]2CNCCO2)cc1	HIV-1 protease	>	299000
CC(C)CN(C[C@@H](O)[C@H](Cc1ccccc1)NC(=O)OC[C@H]1CN(C)CCO1)S(=O)(=O)c1ccc(O)cc1	HIV-1 protease	>	130000
CC(C)CN(C[C@@H](O)[C@H](Cc1ccccc1)NC(=O)[C@@H]1COCCN1)S(=O)(=O)c1ccc(N)cc1	HIV-1 protease	>	6390
CC(C)CN(C[C@@H](O)[C@H](Cc1ccccc1)NC(=O)[C@@H]1COCCN1C)S(=O)(=O)c1ccc(O)cc1	HIV-1 protease	=	113000
CC(C)CN(C[C@@H](O)[C@H](Cc1ccccc1)NC(=O)CN1CCS(=O)(=O)CC1)S(=O)(=O)c1ccc(O)cc1	HIV-1 protease	>	18800
CC(C)CN(C[C@@H](O)[C@H](Cc1ccccc1)NC(=O)[C@@H]1COCCN1)S(=O)(=O)c1ccc(NO)cc1	HIV-1 protease	=	48400
CC(C)CN(C[C@@H](O)[C@H](Cc1ccccc1)NC(=O)[C@H]1CNCCO1)S(=O)(=O)c1ccc(NO)cc1	HIV-1 protease	=	328
COc1ccc(S(=O)(=O)N(CC(C)C)C[C@@H](O)[C@H](Cc2ccccc2)NS(=O)(=O)N2CCOCC2)cc1	HIV-1 protease	=	3140
CC(C)CN(C[C@@H](O)[C@H](Cc1ccccc1)NC(=O)OC[C@H]1CNCCO1)S(=O)(=O)c1ccc(N)cc1	HIV-1 protease	>	10100
COc1ccc(S(=O)(=O)N(CC(C)C)C[C@@H](O)[C@H](Cc2ccccc2)NC(=O)[C@@H]2COCCN2C)cc1	HIV-1 protease	=	27300

----------
System: Human immunodeficiency virus 1
Test: Antiviral activity against HIV1 subtype C isolate ZM246
Type: functional, organism-based
Settings: Human immunodeficiency virus 1, subtype C isolate ZM246

smi	EC50 (nM)
CC(C)CN(C[C@@H](O)[C@H](Cc1ccccc1)NC(=O)[C@@H]1COCCN1)S(=O)(=O)c1ccc(O)cc1	13.6
CC(C)CN(C[C@@H](O)[C@H](Cc1ccccc1)NC(=O)O[C@H]1CO[C@H]2OCC[C@H]21)S(=O)(=O)c1ccc(N)cc1	2.01
